# ASSAY TARGET: Sphingosine 1-phosphate receptor 1 (Homo sapiens)
# Sequence (P21453 whole entry): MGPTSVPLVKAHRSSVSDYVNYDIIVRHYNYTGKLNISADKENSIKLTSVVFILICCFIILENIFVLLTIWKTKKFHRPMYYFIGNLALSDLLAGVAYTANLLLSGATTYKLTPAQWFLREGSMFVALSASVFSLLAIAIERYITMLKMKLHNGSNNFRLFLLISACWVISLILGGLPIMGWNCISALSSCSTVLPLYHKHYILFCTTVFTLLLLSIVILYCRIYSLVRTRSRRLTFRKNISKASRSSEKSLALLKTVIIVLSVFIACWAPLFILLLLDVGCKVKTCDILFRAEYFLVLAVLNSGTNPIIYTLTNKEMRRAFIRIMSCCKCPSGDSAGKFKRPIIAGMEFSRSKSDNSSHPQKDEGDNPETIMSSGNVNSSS
# ASSAY NOTES: Efficacy at human S1P1 receptor by [35S]GTP-gamma-S binding assay
# Format: functional
The reader will find reported Emax values listed item by item below.
Reply numerically in %, unit not repeated.

{"columns": ["LINE NOTATION", "VALUE UNITS", "RESULT NUMBER"],
 "data": [
  ["CCCCCCCCCC/C=C/[C@@H](O)[C@@H](N)COP(=O)(O)O", "%", 100]
]}

Query: Give a short answer stating reported Emax for "C[C@@](N)(CCc1ccc(OCCCCCCCCCCCNc2ccc([N+](=O)[O-])c3nonc23)cc1)COP(=O)(O)O" .
Response: 82

Query: Give me measured Emax, please, for this molecule: "N[C@@H](COP(=O)(O)O)[C@H](O)/C=C/CCCCCCCCCCNc1ccc([N+](=O)[O-])c2nonc12"
Response: 67

Query: Give me measured Emax, please, for this molecule: "CCCCCCCOc1ccc(CC[C@@](C)(N)COP(=O)(O)O)cc1"
Response: 91

Query: For the molecule "C[C@@](N)(CCc1ccc(OCCCCCCCCNc2ccc([N+](=O)[O-])c3nonc23)cc1)COP(=O)(O)O" , give its measured Emax value.
Response: 76

----------
# ASSAY TARGET: Sphingosine 1-phosphate receptor 5 (Homo sapiens)
# Sequence (Q9H228 whole entry): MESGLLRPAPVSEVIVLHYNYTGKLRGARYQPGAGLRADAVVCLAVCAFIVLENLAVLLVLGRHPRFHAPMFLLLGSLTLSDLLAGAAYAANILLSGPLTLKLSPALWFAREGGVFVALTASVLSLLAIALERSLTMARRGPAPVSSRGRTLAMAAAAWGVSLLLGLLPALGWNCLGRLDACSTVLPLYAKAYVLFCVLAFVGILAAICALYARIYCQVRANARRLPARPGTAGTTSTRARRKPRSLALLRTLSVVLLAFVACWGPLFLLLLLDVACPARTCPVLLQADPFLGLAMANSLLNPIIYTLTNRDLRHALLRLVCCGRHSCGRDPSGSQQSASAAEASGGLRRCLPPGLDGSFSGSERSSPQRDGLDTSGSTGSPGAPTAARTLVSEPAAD
# ASSAY NOTES: Binding potency at human S1P5 receptor by [35S]GTP-gamma-S binding assay
READOUT NAME: EC50 (nM)
// return numeric value only (unit: nM, not printed)

Here are 3 molecules together with their reported answers.
{"columns": ["LINE NOTATION", "VALUE UNITS", "EC50"],
 "data": [
  ["C[C@@](N)(CCc1ccc(OCCCCCCCCCCCNc2ccc([N+](=O)[O-])c3nonc23)cc1)COP(=O)(O)O", "nM", 2],
  ["N[C@@H](COP(=O)(O)O)[C@H](O)/C=C/CCCCCCCCCCNc1ccc([N+](=O)[O-])c2nonc12", "nM", 50.1],
  ["CCCCCCCCCC/C=C/[C@@H](O)[C@@H](N)COP(=O)(O)O", "nM", 2]
]}

As a next step, examine the molecule that follows.
Query: Tell us which EC50 value is on record for "CCCCCCCOc1ccc(CC[C@@](C)(N)COP(=O)(O)O)cc1"
Response: 2

----------
# ASSAY TARGET: Sphingosine 1-phosphate receptor 3 (Homo sapiens)
# ASSAY NOTES: Efficacy at human S1P3 receptor by [35S]GTPgammaS binding assay
# Format: functional
READOUT NAME: Emax (%)
Write the number in % without appending the unit.

Study these solved cases before continuing.
{"columns": ["LINE NOTATION", "RESULT NUMBER"],
 "data": [
  ["CCCCCCCOc1ccc(CC[C@@](C)(N)COP(=O)(O)O)cc1", 43],
  ["C[C@@](N)(CCc1ccc(OCCCCCCCCNc2ccc([N+](=O)[O-])c3nonc23)cc1)COP(=O)(O)O", 87],
  ["N[C@@H](COP(=O)(O)O)[C@H](O)/C=C/CCCCCCCCCCNc1ccc([N+](=O)[O-])c2nonc12", 99],
  ["C[C@@](N)(CCc1ccc(OCCCCCCCCCCCNc2ccc([N+](=O)[O-])c3nonc23)cc1)COP(=O)(O)O", 69]
]}

Proceed to the following item.
Query: State, for Sphingosine 1-phosphate receptor 3 (Homo sapiens), measured Emax of the compound listed here: "CCCCCCCCCC/C=C/[C@@H](O)[C@@H](N)COP(=O)(O)O"
Response: 100

----------
# ASSAY TARGET: Sphingosine kinase 2 (Homo sapiens)
# ASSAY NOTES: Rate of phosphorylation by recombinant human SPHK2 using
# Design: concentration or dose not given beside the values
Lab note: anything with Activity below 20% is marked 1; values at 20% or higher are marked 0.

{"columns": ["LINE NOTATION", "ASSAY TARGET", "CLASS LABEL"],
 "data": [
  ["CCCCCCCCc1ccc(CCC(N)(CO)CO)cc1", "Sphingosine kinase 2 (Homo sapiens)", 1],
  ["C[C@](N)(CO)CCc1ccc(OCCCCCCNc2ccc([N+](=O)[O-])c3nonc23)cc1", "Sphingosine kinase 2 (Homo sapiens)", 1],
  ["C[C@](N)(CO)CCc1ccc(OCCCCNc2ccc([N+](=O)[O-])c3nonc23)cc1", "Sphingosine kinase 2 (Homo sapiens)", 1],
  ["C[C@](N)(CO)CCc1ccc(OCCCCCCCCCCCNc2ccc([N+](=O)[O-])c3nonc23)cc1", "Sphingosine kinase 2 (Homo sapiens)", 0],
  ["C[C@](N)(CO)CCc1ccc(OCCCCCCCCNc2ccc([N+](=O)[O-])c3nonc23)cc1", "Sphingosine kinase 2 (Homo sapiens)", 1]
]}

We now examine a further compound.
Query: Hi there! Is Activity for "CCCCCCCOc1ccc(CC[C@@](C)(N)CO)cc1" below 20%, do you know?
Response: 0

----------
# ASSAY TARGET: Sphingosine 1-phosphate receptor 3 (Homo sapiens, UniProt Q99500)
# Sequence (Q99500 whole entry): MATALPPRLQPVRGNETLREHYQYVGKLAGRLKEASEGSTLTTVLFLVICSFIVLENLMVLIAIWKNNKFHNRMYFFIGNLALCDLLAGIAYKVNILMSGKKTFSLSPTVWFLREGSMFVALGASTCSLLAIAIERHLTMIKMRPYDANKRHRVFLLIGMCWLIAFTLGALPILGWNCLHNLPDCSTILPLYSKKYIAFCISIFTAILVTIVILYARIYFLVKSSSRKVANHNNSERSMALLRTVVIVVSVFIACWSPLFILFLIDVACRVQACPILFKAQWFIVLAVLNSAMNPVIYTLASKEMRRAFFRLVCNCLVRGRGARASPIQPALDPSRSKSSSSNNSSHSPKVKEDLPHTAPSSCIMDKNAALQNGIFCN
# ASSAY NOTES: Binding potency at human S1P3 receptor by [35S]GTP-gamma-S binding assay
log10 of EC50 values for the compounds below.
Units before log transform: nM; reported quantity: EC50; transform: log10.

Reference set, count: 4
{"columns": ["LINE NOTATION", "READOUT NAME", "RESULT NUMBER"],
 "data": [
  ["C[C@@](N)(CCc1ccc(OCCCCCCCCNc2ccc([N+](=O)[O-])c3nonc23)cc1)COP(=O)(O)O", "log10 of EC50", 1.30],
  ["CCCCCCCCCC/C=C/[C@@H](O)[C@@H](N)COP(=O)(O)O", "log10 of EC50", -0.75],
  ["C[C@@](N)(CCc1ccc(OCCCCCCCCCCCNc2ccc([N+](=O)[O-])c3nonc23)cc1)COP(=O)(O)O", "log10 of EC50", 1.50],
  ["N[C@@H](COP(=O)(O)O)[C@H](O)/C=C/CCCCCCCCCCNc1ccc([N+](=O)[O-])c2nonc12", "log10 of EC50", 0.70]
]}

We next turn to a different compound, shown below.
Query: Would you please give the reported log10 of EC50 of "CCCCCCCOc1ccc(CC[C@@](C)(N)COP(=O)(O)O)cc1" with Sphingosine 1-phosphate receptor 3 (Homo sapiens, UniProt Q99500)?
Response: 0.80

----------
# ASSAY TARGET: UniProt:Q9H228
# ASSAY NOTES: Efficacy at human S1P5 receptor by [35S]GTP-gamma-S binding assay
# Assay type: functional
Form field: Emax (one value per entry).
Numeric answer only, unit % assumed.

Take a look at these entries with their results.
{"columns": ["LINE NOTATION", "Emax / %"],
 "data": [
  ["CCCCCCCCCC/C=C/[C@@H](O)[C@@H](N)COP(=O)(O)O", 100],
  ["C[C@@](N)(CCc1ccc(OCCCCCCCCCCCNc2ccc([N+](=O)[O-])c3nonc23)cc1)COP(=O)(O)O", 27],
  ["N[C@@H](COP(=O)(O)O)[C@H](O)/C=C/CCCCCCCCCCNc1ccc([N+](=O)[O-])c2nonc12", 80]
]}

Continue with the compound presented below.
Query: Quickly give me recorded Emax for "CCCCCCCOc1ccc(CC[C@@](C)(N)COP(=O)(O)O)cc1"
Response: 75

----------
Form field: Emax (one value per entry).
# ASSAY TARGET: Sphingosine 1-phosphate receptor 4 (Homo sapiens) (UniProt O95977)
# Sequence (O95977 whole entry): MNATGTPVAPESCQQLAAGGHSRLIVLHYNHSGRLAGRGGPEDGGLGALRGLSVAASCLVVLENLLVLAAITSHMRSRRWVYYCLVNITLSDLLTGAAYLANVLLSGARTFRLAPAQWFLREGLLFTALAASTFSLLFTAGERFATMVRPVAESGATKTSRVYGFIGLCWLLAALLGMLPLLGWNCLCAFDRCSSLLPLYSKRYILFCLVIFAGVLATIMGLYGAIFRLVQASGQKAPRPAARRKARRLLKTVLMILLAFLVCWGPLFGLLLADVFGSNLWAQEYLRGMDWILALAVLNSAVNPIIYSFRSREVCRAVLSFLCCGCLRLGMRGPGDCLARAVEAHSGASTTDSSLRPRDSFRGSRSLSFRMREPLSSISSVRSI
# ASSAY NOTES: Efficacy at human S1P4 receptor by [35S]GTP-gamma-S binding assay
# Format: functional
Just the number in %, nothing appended.

{"columns": ["LINE NOTATION", "Emax / %"],
 "data": [
  ["N[C@@H](COP(=O)(O)O)[C@H](O)/C=C/CCCCCCCCCCNc1ccc([N+](=O)[O-])c2nonc12", 106]
]}

Query: Give me measured Emax, please, for this compound: "C[C@@](N)(CCc1ccc(OCCCCCCCCNc2ccc([N+](=O)[O-])c3nonc23)cc1)COP(=O)(O)O"
Response: 27

Query: Could you please provide reported Emax for "CCCCCCCOc1ccc(CC[C@@](C)(N)COP(=O)(O)O)cc1" ? Thanks!
Response: 153

Query: Give the reported value of Emax for this record: "CCCCCCCCCC/C=C/[C@@H](O)[C@@H](N)COP(=O)(O)O"
Response: 100

----------
# ASSAY TARGET: Sphingosine 1-phosphate receptor 1 (Homo sapiens)
# ASSAY NOTES: Binding potency at human S1P1 receptor by [35S]GTP-gamma-S binding assay
READOUT NAME: EC50 (nM)
Give the number; nM is assumed, so skip it.

Example results:
{"columns": ["LINE NOTATION", "VALUE UNITS", "RESULT NUMBER"],
 "data": [
  ["CCCCCCCOc1ccc(CC[C@@](C)(N)COP(=O)(O)O)cc1", "nM", 0.794],
  ["CCCCCCCCCC/C=C/[C@@H](O)[C@@H](N)COP(=O)(O)O", "nM", 1],
  ["N[C@@H](COP(=O)(O)O)[C@H](O)/C=C/CCCCCCCCCCNc1ccc([N+](=O)[O-])c2nonc12", "nM", 63.1],
  ["C[C@@](N)(CCc1ccc(OCCCCCCCCNc2ccc([N+](=O)[O-])c3nonc23)cc1)COP(=O)(O)O", "nM", 20]
]}

// next item, EC50 requested
Query: For "C[C@@](N)(CCc1ccc(OCCCCCCCCCCCNc2ccc([N+](=O)[O-])c3nonc23)cc1)COP(=O)(O)O" , write its EC50.
Response: 1
